MEASURED ON: T1, human ACVR2A (human, UniProt P27037 20-135, limits assumed)
T1 construct: coated antigen of the initial ELISA; also called activin receptor, type II A
METHOD SUMMARY: ELISA; also: test concentration or dose not given here
OBSERVED PROPERTY: optical density (OD)
// note: answer is a bare numeric in OD

Some solved cases for reference:
374_D05 (antibody, V domains shown, Group III) VH: EVQLLESGGGLVQPGGSLRLSCAASGFTFDSYSMNWVRQAPGKGLEWVSGINYNSGYTGYADSVKGRFTISRDNSKNTLYLQMNSLRAEDTAVYYCARGANWHDTHLDYWGQGTLVTVSS VL: DIQMTQSPSSLSASVGDRVTITCRASQSILTYLNWYQQKPGKAPKLLIYAATSRASGVPSRFSGSGSGTDFTLTISSLQPEDFATYYCQQSYDTPLTFGGGTKVEIK | 3.43
375_C04 (antibody, V domains shown, Group III) VH: EVQLLESGGGLVQPGGSLRLSCAASGFTFSDYSMNWVRQAPGKGLEWVAGINYNGGYTSYADSVKGRFTISRDNSKNTLYLQMNSLRAEDTAVYYCARGANWHDTALDYWGQGTLVTVSS VL: DIQMTQSPSSLSASVGDRVTITCRASQSILTYLNWYQQKPGKAPKLVIYAATSRASGVPSRFSGSGSGTDFTLTISSLQPEDFATYYCQQSYESPLTFGGGTKVEIK | 3.68
373_H03 (antibody, V domains shown, Group III) VH: EVQLLESGGGLVQPGGSLRLSCAASGFTFSSYSMNWVRQAPGKGLEWVSGINYNSGYKSYADSVKGRFTISRDNSKNTLYLQMNSLRAEDTAVYYCARGANWHDTALDYWGQGTLVTVSS VL: DIQMTQSPSSLSASVGDRVTITCRASQSILSYLNWYQQKPGKAPKLLIYATTSRASGVPSRFSGSGSGTDFTLTISSLQPEDFATYYCQQSYENPLTFGGGTKVEIK | 3.27
375_E03 (antibody, V domains shown, Group III) VH: EVQLLESGGGLVQPGGSLRLSCAASGFTFSDYSMNWVRQAPGKGLEWVANINYNGGYTGYADSVKGRFTISRDNSKNTLYLQMNSLRAEDTAVYYCARGANWHDTHLDYWGQGTLVTVSS VL: DIQMTQSPSSLSASVGDRVTITCRASQSILTYLNWYQQKPGKAPKLVIYAATSLASGVPSRFSGSGSGTDFTLTISSLQPEDFATYYCQQSYDNPLTFGGGTKVEIK | 3.57
367_G01 (antibody, V domains shown, Group III) VH: EVQLLESGGGLVQPGGSLRLSCAASGFTFDSYGMNWVRQAPGKGLEWVASINYNSGYTGYADSVKGRFTISRDNSKNTLYLQMNSLRAEDTAVYYCARGANWHDTHLDYWGQGTLVTVSS VL: DIQMTQSPSSLSASVGDRVTITCRASQSISSYLNWYQQKPGKAPKLVIYAATSRASGVPSRFSGSGSGTDFTLTISSLQPEDFATYYCQQSYDLPLTFGGGTKVEIK | 1.8
374_B08 (antibody, V domains shown, Group III) VH: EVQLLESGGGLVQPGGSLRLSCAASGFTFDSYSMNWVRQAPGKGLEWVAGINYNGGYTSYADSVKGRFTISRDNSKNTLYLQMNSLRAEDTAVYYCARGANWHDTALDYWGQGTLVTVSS VL: DIQMTQSPSSLSASVGDRVTITCRASQSIVSYVNWYQQKPGKAPKLLIYAATSRHSGVPSRFSGSGSGTDFTLTISSLQPEDFATYYCQQSYELPLTFGGGTKVEIK | 3.6

Consider now this further binder.
## Task // lookup optical density for 372_E01 (antibody, V domains shown, Group III) VH: EVQLLESGGGLVQPGGSLRLSCAASGFTFDDYSMNWVRQAPGKGLEWVSGINYNGGYKGYADSVKGRFTISRDNSKNTLYLQMNSLRAEDTAVYYCARGANWHDTALDYWGQGTLVTVSS VL: DIQMTQSPSSLSASVGDRVTITCRASQSIVSYLNWYQQKPGKAPKLVIYAATSRHSGVPSRFSGSGSGTDFTLTISSLQPEDFATYYCQQSYDSPLTFGGGTKVEIK
## Result 3.34

Where these numbers come from: patent US20210380703A1
